Listed next: entries and their corresponding Ki.
Target: Human Recombinant Matriptase 2 (Homo sapiens, UniProt Q8IU80)
Construct: made in house
Sequence (Q8IU80 1-811): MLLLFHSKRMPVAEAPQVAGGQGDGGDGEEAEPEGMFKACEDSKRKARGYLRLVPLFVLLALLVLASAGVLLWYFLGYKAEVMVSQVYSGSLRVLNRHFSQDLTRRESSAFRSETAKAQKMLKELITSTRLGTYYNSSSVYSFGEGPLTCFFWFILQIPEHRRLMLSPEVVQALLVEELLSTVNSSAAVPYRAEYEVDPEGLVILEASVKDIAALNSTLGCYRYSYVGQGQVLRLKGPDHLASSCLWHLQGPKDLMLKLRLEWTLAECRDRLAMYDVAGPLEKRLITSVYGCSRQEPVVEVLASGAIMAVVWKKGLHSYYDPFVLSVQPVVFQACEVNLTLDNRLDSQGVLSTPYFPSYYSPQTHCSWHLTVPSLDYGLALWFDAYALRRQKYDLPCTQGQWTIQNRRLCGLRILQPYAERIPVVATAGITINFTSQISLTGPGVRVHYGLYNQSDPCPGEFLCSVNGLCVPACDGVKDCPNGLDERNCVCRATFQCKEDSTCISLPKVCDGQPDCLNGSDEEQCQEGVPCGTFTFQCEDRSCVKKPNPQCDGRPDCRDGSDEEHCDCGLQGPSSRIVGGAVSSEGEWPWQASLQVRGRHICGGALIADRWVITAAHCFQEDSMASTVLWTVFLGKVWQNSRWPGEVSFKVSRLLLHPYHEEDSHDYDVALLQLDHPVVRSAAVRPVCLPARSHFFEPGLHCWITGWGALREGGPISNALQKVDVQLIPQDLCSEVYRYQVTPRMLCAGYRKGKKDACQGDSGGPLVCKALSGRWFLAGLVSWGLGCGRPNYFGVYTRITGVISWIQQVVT
Assay: Matriptase 2 inhibition, fluorescence based assay (Method I)
Format: biochemical
Conditions: Table A; Ki of Matriptase-2 given as class symbols; read-out: Mat-2 Ki

Check out these entries, answers already filled in.
[
  {
    "molecule": "CC(=O)OC(C)OC(=O)c1cc2ccc(CN)nc2n1Cc1cc(NS(=O)(=O)CC[C@@H]2CCCN2)cc2ccccc12 (some centres unmarked)",
    "Ki": "0.5 to 3 µM"
  },
  {
    "molecule": "COCCN1CCN(C(=O)Nc2cc(Cn3c(C(=O)O)cc4ccc(CN)cc43)c3ccccc3c2)CC1",
    "Ki": "0.5 to 3 µM"
  },
  {
    "molecule": "CN1CCC(COC(=O)c2cc3ccc(CN)cc3n2Cc2cc(NS(=O)(=O)Cc3ccccc3)cc3ccccc23)CC1",
    "Ki": "≤ 0.1 µM"
  },
  {
    "molecule": "COC[C@H]1CCCN1C(=O)Nc1cc(Cn2c(C(=O)O)cc3ccc(CN)nc32)c2ccccc2c1",
    "Ki": "0.5 to 3 µM"
  },
  {
    "molecule": "NCc1ccc2cc(C(=O)O)n(Cc3cc(NS(=O)(=O)Cc4ccsc4)cc4c3CCCC4)c2n1",
    "Ki": "0.1 to 0.5 µM"
  }
]

The reported Ki of the molecule C[C@@H](c1ccccc1)S(=O)(=O)Nc1cc(Cn2c(C(=O)OCC3CCN(C)CC3)cc3ccc(CN)cc32)c2ccccc2c1 was 0.1 to 0.5 µM

The reported Ki of the molecule NCc1ccc2cc(-c3ccn[nH]3)n(Cc3cc(NS(=O)(=O)Cc4ccccc4)cc4ccccc34)c2n1 was ≤ 0.1 µM

The reported Ki of the molecule Cc1cccc(CS(=O)(=O)Nc2cc(Cn3c(C(=O)O)cc4ccc(CN)nc43)c3ccccc3c2)c1 was 0.1 to 0.5 µM

The reported Ki of the molecule N#Cc1cccc(CS(=O)(=O)Nc2cc(Cn3c(C(=O)O)cc4ccc(CN)nc43)c3ccccc3c2)c1 was 0.1 to 0.5 µM

The reported Ki of the molecule CN1CCC(Cc2nnc(-c3cc4ccc(CN)nc4n3Cc3cc(NS(=O)(=O)Cc4ccccc4)cc4ccccc34)o2)CC1 was 0.1 to 0.5 µM
